Molecular target: Recombinant α1,2-Mannosyltransferase (Saccharomyces cerevisiae, UniProt P27809)
Construct: made in house; host or cells: E. coli XL1-Blue, periplasmic fraction
Sequence (P27809 31-442): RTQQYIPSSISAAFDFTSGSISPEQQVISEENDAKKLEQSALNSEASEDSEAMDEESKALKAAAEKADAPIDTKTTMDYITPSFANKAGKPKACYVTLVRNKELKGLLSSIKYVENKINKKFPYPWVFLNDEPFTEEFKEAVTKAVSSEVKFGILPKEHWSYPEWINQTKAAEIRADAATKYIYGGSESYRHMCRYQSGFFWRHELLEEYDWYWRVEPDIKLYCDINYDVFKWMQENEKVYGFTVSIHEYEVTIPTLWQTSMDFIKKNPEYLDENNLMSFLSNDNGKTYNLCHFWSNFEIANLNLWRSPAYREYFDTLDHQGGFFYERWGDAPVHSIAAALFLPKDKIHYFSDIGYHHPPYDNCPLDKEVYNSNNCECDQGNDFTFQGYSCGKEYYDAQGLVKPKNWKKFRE
Test: Substrate specificity and enzyme kinetics of the mannosyltransfer reaction (GDP-Man + acceptor)
Format: biochemical
Details: acceptor with GDP-Man; calculated as the ratio of Vmax; ManαOMe = 1.0
Peptide text beside a SMILES is read from it. * marks the point of attachment. X1 = OCC1OC(*)C(O)C(O)C1O; Cbz = O=C(OCc1ccccc1)*
Dear colleague, classification is by Vrelative, with ranges listed here: 1 = under 0.06, 2 = from 0.06 up to 0.6, 3 = 0.6 and over

# COMPOUND, LABEL CLASS
measured = [
    ("CC(NC(=O)CNC(=O)C(NC(=O)C(NC(=O)OCc1ccccc1)C(C)OC1OC(CO)C(O)C(O)C1O)C(C)C)C(N)=O (stereo not drawn) [Compound 9, Cbz-Thr(α-Man)-Val-Gly-Ala-NH2] (Cbz-T(X1)VGA-NH2; configuration not given here)", 2),
    ("O=C[C@@H](O)[C@@H](O)[C@H](O)[C@H](O)CO [Compound 2, mannose]", 2),
    ("CO[C@H]1O[C@H](COS(=O)(=O)c2ccc(C)cc2)[C@@H](O)[C@H](O)[C@@H]1O [Compound 12, 6-Tosyl-ManαOMe]", 1),
    ("CO[C@H]1O[C@H](CN)[C@@H](O)[C@H](O)[C@@H]1O [Compound 6, 6-Amino-6-deoxy-ManαOMe]", 2),
    ("O=[N+]([O-])c1ccc(O[C@H]2O[C@H](CO)[C@@H](O)[C@H](O)[C@@H]2O)cc1 [Compound 13, p-nitrophenyl α-mannopyranoside, reference compound]", 1),
    ("COC(=O)C(NC(=O)C(N)C(C)OC1OC(CO)C(O)C(O)C1O)C(C)C (stereo not drawn) [Compound 8, Thr(α-Man)-Val-OMe]", 3),
    ("COC(=O)C(NC(=O)C(NC(=O)OCc1ccccc1)C(C)OC1OC(CO)C(O)C(O)C1OC1OC(CO)C(O)C(O)C1O)C(C)C (centres unmarked) [Compound 11, Cbz-Thr(αManα1,2Man)-Val-OMe]", 2),
    ("CO[C@H]1O[C@H](CO)[C@@H](O)[C@H](O)[C@@H]1O[C@H]1O[C@H](CO)[C@@H](O)[C@H](O)[C@@H]1O [Compound 3, Manα1,2ManαOMe]", 3),
    ("CO[C@H]1O[C@H](CN=[N+]=[N-])[C@@H](O)[C@H](O)[C@@H]1O [Compound 5, 6-Azido-6-deoxy-ManαOMe]", 1),
    ("CO[C@H]1O[C@H](CO)[C@@H](O)[C@H](O)[C@@H]1O [Compound 1, α-methylmannopyranoside, reference compound]", 3),
]

* * *

Biological target: Recombinant α1,2-Mannosyltransferase (Saccharomyces cerevisiae, UniProt P27809)
Construct: made in house; host or cells: E. coli XL1-Blue, periplasmic fraction
Assay: Substrate specificity and enzyme kinetics of the mannosyltransfer reaction (GDP-Man + acceptor)
Assay type: biochemical
Conditions: recombinant α1,2-ManT; 150 mM substrate, 3.3 mM GDP-Man
RECORDED METRIC: substrate (acceptor) quality in words

# COMPOUND, SYSTEM, RECORDED METRIC, ASSAY VALUE
rows = [
    ("O=C[C@@H](O)[C@@H](O)[C@@H](O)[C@H](O)CO [D-talose, reference compound]", "Recombinant α1,2-Mannosyltransferase (Saccharomyces cerevisiae, UniProt P27809)", "substrate (acceptor) quality in words", "not substrates"),
    ("CO[C@H]1O[C@H](C)[C@@H](O)[C@H](O)[C@@H]1O [Compound 4, Methyl 6-Deoxy-α-D-mannopyranoside]", "Recombinant α1,2-Mannosyltransferase (Saccharomyces cerevisiae, UniProt P27809)", "substrate (acceptor) quality in words", "poor substrates"),
    ("CO[C@H]1O[C@H](CN)[C@@H](O)[C@H](O)[C@@H]1O [Compound 6, 6-Amino-6-deoxy-ManαOMe]", "Recombinant α1,2-Mannosyltransferase (Saccharomyces cerevisiae, UniProt P27809)", "substrate (acceptor) quality in words", "poor substrates"),
    ("O=C[C@@H](O)[C@H](O)[C@@H](O)[C@H](O)CO [D-idose, reference compound]", "Recombinant α1,2-Mannosyltransferase (Saccharomyces cerevisiae, UniProt P27809)", "substrate (acceptor) quality in words", "not substrates"),
]
